- Tested on: Chlamydia trachomatis
- testProtocol: Antimicrobial activity against Chlamydia trachomatis Bour serovar E infected in […] monolayers assessed as reduction in number of microbial inclusions after 48 hrs
- Format: functional, LLC-MK2
Each entry below carries its recorded MIC.

smilesStr: CC[C@H]1OC(=O)[C@H](C)[C@@H](O[C@H]2C[C@@](C)(OC)[C@@H](O)[C@H](C)O2)[C@H](C)[C@@H](O[C@@H]2O[C@H](C)C[C@H](N(C)C)[C@H]2O)[C@](C)(O)C[C@@H](C)C(=O)[C@H](C)[C@@H](O)[C@]1(C)O
testedOn: Chlamydia trachomatis
MIC / µg/mL: 0.5
//
smilesStr: C[C@H]1c2cccc(O)c2C(=O)C2=C(O)[C@]3(O)C(=O)C(C(N)=O)=C(O)[C@@H](N(C)C)[C@@H]3[C@@H](O)[C@@H]21.O
testedOn: Chlamydia trachomatis
MIC / µg/mL: 0.03
//
smilesStr: C[C@H]1COc2c(N3CCN(C)CC3)c(F)cc3c(=O)c(C(=O)O)cn1c23.C[C@H]1COc2c(N3CCN(C)CC3)c(F)cc3c(=O)c(C(=O)O)cn1c23.O
testedOn: Chlamydia trachomatis
MIC / µg/mL: 0.5
//
smilesStr: CC[C@H]1OC(=O)[C@H](C)[C@@H](O[C@H]2C[C@@](C)(OC)[C@@H](O)[C@H](C)O2)[C@H](C)[C@@H](O[C@@H]2O[C@H](C)C[C@H](N(C)C)[C@H]2O)[C@](C)(OC)C[C@@H](C)C(=O)[C@H](C)[C@@H](O)[C@]1(C)O
testedOn: Chlamydia trachomatis
MIC / µg/mL: 0.03
//
smilesStr: CC[C@H]1OC(=O)[C@H](C)[C@@H](O[C@H]2C[C@@](C)(OC)[C@@H](O)[C@H](C)O2)[C@H](C)[C@@H](O[C@@H]2O[C@H](C)C[C@H](N(C)C)[C@H]2O)[C@](C)(O)C[C@@H](C)CN(C)[C@H](C)[C@@H](O)[C@]1(C)O
testedOn: Chlamydia trachomatis
MIC / µg/mL: 0.25

----------
We begin with a simple list: items and their reported MBC.
- Tested on: Chlamydia trachomatis
- testProtocol: Bactericidal activity against Chlamydia trachomatis serovar D infected in […] monolayers assessed as reduction in number of microbial inclusions after 48 hrs
- Assay type: functional, LLC-MK2

smilesStr: CC[C@H]1OC(=O)[C@H](C)[C@@H](O[C@H]2C[C@@](C)(OC)[C@@H](O)[C@H](C)O2)[C@H](C)[C@@H](O[C@@H]2O[C@H](C)C[C@H](N(C)C)[C@H]2O)[C@](C)(O)C[C@@H](C)C(=O)[C@H](C)[C@@H](O)[C@]1(C)O
testedOn: Chlamydia trachomatis
MBC, µg/mL: 1
--
smilesStr: CC[C@H]1OC(=O)[C@H](C)[C@@H](O[C@H]2C[C@@](C)(OC)[C@@H](O)[C@H](C)O2)[C@H](C)[C@@H](O[C@@H]2O[C@H](C)C[C@H](N(C)C)[C@H]2O)[C@](C)(O)C[C@@H](C)CN(C)[C@H](C)[C@@H](O)[C@]1(C)O
testedOn: Chlamydia trachomatis
MBC, µg/mL: 0.5

----------
Consider the following molecules and their measured MBC readings.
- System: Chlamydia trachomatis
- testProtocol: Bactericidal activity against Chlamydia trachomatis serovar D infected in […] monolayers assessed as reduction in number of microbial inclusions after 48 hrs
- Format: functional, LLC-MK2

molecule: C[C@H]1COc2c(N3CCN(C)CC3)c(F)cc3c(=O)c(C(=O)O)cn1c23.C[C@H]1COc2c(N3CCN(C)CC3)c(F)cc3c(=O)c(C(=O)O)cn1c23.O [LEVOFLOXACIN]
valueUnits: µg/mL
MBC: 0.5
//
molecule: CC[C@H]1OC(=O)[C@H](C)[C@@H](O[C@H]2C[C@@](C)(OC)[C@@H](O)[C@H](C)O2)[C@H](C)[C@@H](O[C@@H]2O[C@H](C)C[C@H](N(C)C)[C@H]2O)[C@](C)(OC)C[C@@H](C)C(=O)[C@H](C)[C@@H](O)[C@]1(C)O [CLARITHROMYCIN]
valueUnits: µg/mL
MBC: 0.03
//
molecule: C[C@H]1c2cccc(O)c2C(=O)C2=C(O)[C@]3(O)C(=O)C(C(N)=O)=C(O)[C@@H](N(C)C)[C@@H]3[C@@H](O)[C@@H]21.O [DOXYCYCLINE]
valueUnits: µg/mL
MBC: 0.06

----------
- Test system: Chlamydia trachomatis
- testProtocol: Antimicrobial activity against Chlamydia trachomatis UW-36 serovar J infected in […] monolayers assessed as reduction in number of microbial inclusions after 48 hrs
- Format: functional, LLC-MK2
- experimentalParameters: J/UW-36, 48 h

smilesStr: CC[C@H]1OC(=O)[C@H](C)[C@@H](O[C@H]2C[C@@](C)(OC)[C@@H](O)[C@H](C)O2)[C@H](C)[C@@H](O[C@@H]2O[C@H](C)C[C@H](N(C)C)[C@H]2O)[C@](C)(O)C[C@@H](C)C(=O)[C@H](C)[C@@H](O)[C@]1(C)O
valueUnits: µg/mL
MIC: 0.5

smilesStr: C[C@H]1c2cccc(O)c2C(=O)C2=C(O)[C@]3(O)C(=O)C(C(N)=O)=C(O)[C@@H](N(C)C)[C@@H]3[C@@H](O)[C@@H]21.O
valueUnits: µg/mL
MIC: 0.5

smilesStr: C[C@H]1COc2c(N3CCN(C)CC3)c(F)cc3c(=O)c(C(=O)O)cn1c23.C[C@H]1COc2c(N3CCN(C)CC3)c(F)cc3c(=O)c(C(=O)O)cn1c23.O
valueUnits: µg/mL
MIC: 0.5

smilesStr: CC[C@H]1OC(=O)[C@H](C)[C@@H](O[C@H]2C[C@@](C)(OC)[C@@H](O)[C@H](C)O2)[C@H](C)[C@@H](O[C@@H]2O[C@H](C)C[C@H](N(C)C)[C@H]2O)[C@](C)(OC)C[C@@H](C)C(=O)[C@H](C)[C@@H](O)[C@]1(C)O
valueUnits: µg/mL
MIC: 0.06

smilesStr: CC[C@H]1OC(=O)[C@H](C)[C@@H](O[C@H]2C[C@@](C)(OC)[C@@H](O)[C@H](C)O2)[C@H](C)[C@@H](O[C@@H]2O[C@H](C)C[C@H](N(C)C)[C@H]2O)[C@](C)(O)C[C@@H](C)CN(C)[C@H](C)[C@@H](O)[C@]1(C)O
valueUnits: µg/mL
MIC: 0.5

----------
- Test system: Chlamydia trachomatis
- testProtocol: Antimicrobial activity against Chlamydia trachomatis serovar J infected in […] monolayers assessed as reduction in number of microbial inclusions after 48 hrs
- Assay type: functional, LLC-MK2

compound: CC[C@H]1OC(=O)[C@H](C)[C@@H](O[C@H]2C[C@@](C)(OC)[C@@H](O)[C@H](C)O2)[C@H](C)[C@@H](O[C@@H]2O[C@H](C)C[C@H](N(C)C)[C@H]2O)[C@](C)(O)C[C@@H](C)CN(C)[C@H](C)[C@@H](O)[C@]1(C)O [AZITHROMYCIN]
MIC / µg/mL: 0.25
//
compound: C[C@H]1COc2c(N3CCN(C)CC3)c(F)cc3c(=O)c(C(=O)O)cn1c23.C[C@H]1COc2c(N3CCN(C)CC3)c(F)cc3c(=O)c(C(=O)O)cn1c23.O [LEVOFLOXACIN]
MIC / µg/mL: 0.5
//
compound: CC[C@H]1OC(=O)[C@H](C)[C@@H](O[C@H]2C[C@@](C)(OC)[C@@H](O)[C@H](C)O2)[C@H](C)[C@@H](O[C@@H]2O[C@H](C)C[C@H](N(C)C)[C@H]2O)[C@](C)(O)C[C@@H](C)C(=O)[C@H](C)[C@@H](O)[C@]1(C)O [ERYTHROMYCIN]
MIC / µg/mL: 1
//
compound: CC[C@H]1OC(=O)[C@H](C)[C@@H](O[C@H]2C[C@@](C)(OC)[C@@H](O)[C@H](C)O2)[C@H](C)[C@@H](O[C@@H]2O[C@H](C)C[C@H](N(C)C)[C@H]2O)[C@](C)(OC)C[C@@H](C)C(=O)[C@H](C)[C@@H](O)[C@]1(C)O [CLARITHROMYCIN]
MIC / µg/mL: 0.03
//
compound: C[C@H]1c2cccc(O)c2C(=O)C2=C(O)[C@]3(O)C(=O)C(C(N)=O)=C(O)[C@@H](N(C)C)[C@@H]3[C@@H](O)[C@@H]21.O [DOXYCYCLINE]
MIC / µg/mL: 0.06

----------
Here the recorded MBC is given for each entry.
- System: Chlamydia trachomatis
- testProtocol: Bactericidal activity against Chlamydia trachomatis serovar K infected in […] monolayers assessed as reduction in number of microbial inclusions after 48 hrs
- Assay type: functional, LLC-MK2

smilesStr: CC[C@H]1OC(=O)[C@H](C)[C@@H](O[C@H]2C[C@@](C)(OC)[C@@H](O)[C@H](C)O2)[C@H](C)[C@@H](O[C@@H]2O[C@H](C)C[C@H](N(C)C)[C@H]2O)[C@](C)(O)C[C@@H](C)CN(C)[C@H](C)[C@@H](O)[C@]1(C)O
MBC [µg/mL]: 0.5

smilesStr: C[C@H]1COc2c(N3CCN(C)CC3)c(F)cc3c(=O)c(C(=O)O)cn1c23.C[C@H]1COc2c(N3CCN(C)CC3)c(F)cc3c(=O)c(C(=O)O)cn1c23.O
MBC [µg/mL]: 0.5

smilesStr: CC[C@H]1OC(=O)[C@H](C)[C@@H](O[C@H]2C[C@@](C)(OC)[C@@H](O)[C@H](C)O2)[C@H](C)[C@@H](O[C@@H]2O[C@H](C)C[C@H](N(C)C)[C@H]2O)[C@](C)(O)C[C@@H](C)C(=O)[C@H](C)[C@@H](O)[C@]1(C)O
MBC [µg/mL]: 1

smilesStr: CC[C@H]1OC(=O)[C@H](C)[C@@H](O[C@H]2C[C@@](C)(OC)[C@@H](O)[C@H](C)O2)[C@H](C)[C@@H](O[C@@H]2O[C@H](C)C[C@H](N(C)C)[C@H]2O)[C@](C)(OC)C[C@@H](C)C(=O)[C@H](C)[C@@H](O)[C@]1(C)O
MBC [µg/mL]: 0.03

smilesStr: C[C@H]1c2cccc(O)c2C(=O)C2=C(O)[C@]3(O)C(=O)C(C(N)=O)=C(O)[C@@H](N(C)C)[C@@H]3[C@@H](O)[C@@H]21.O
MBC [µg/mL]: 0.06
